# Assayed system: Leukotriene D4 (LTD4) receptor (Cavia porcellus, UniProt Q2NNR5)
# Construct: lung cell membrane fractions of guinea pigs were used; from tissue; host or cells: lung membrane fractions of Hartley strain male guinea pigs
# Sequence (Q2NNR5 1-340): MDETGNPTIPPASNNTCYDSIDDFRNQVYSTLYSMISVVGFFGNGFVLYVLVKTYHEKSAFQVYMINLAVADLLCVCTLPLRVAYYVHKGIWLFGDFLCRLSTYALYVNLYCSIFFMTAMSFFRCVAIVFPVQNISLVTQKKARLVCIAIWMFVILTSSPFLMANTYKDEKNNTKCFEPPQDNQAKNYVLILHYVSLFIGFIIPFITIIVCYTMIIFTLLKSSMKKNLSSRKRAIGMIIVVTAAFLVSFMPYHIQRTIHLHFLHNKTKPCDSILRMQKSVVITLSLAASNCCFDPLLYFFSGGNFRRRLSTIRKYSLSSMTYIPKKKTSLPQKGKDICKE
# Assay text: Leukotriene D4 receptor binding test ([3H]ICI-198615 displacement, lung cell membrane fractions)
# Stated conditions: pKi value, guinea pig lung membranes; [3H]ICI-198615 about 0.2 nM; pKi=-log Ki
Some compounds, each annotated with its measured Ki.
Express the result in nM but write the number alone.

Guide cases for Ki, answers given:
compound="O=C(O)CCSC1c2ccc(-c3nn[nH]n3)cc2COc2ccc(OCc3ccc4ccccc4n3)cc21 (stereo not shown)" unit_string=nM observed_value=1.58
compound="O=C(O)CCSC1c2ccccc2COc2ccc(OCc3ccc4ccc(Cl)cc4n3)cc21 (single isomer, unassigned; (-)) [Example 53]" unit_string=nM observed_value=3.98
compound="O=C(O)CCCSC1c2ccccc2COc2ccc(OCc3ccc4ccc(Cl)cc4n3)cc21 (stereo not shown)" unit_string=nM observed_value=2.51

Below: the item to evaluate.
q: // returns reported Ki for input O=C(O)CCSC1c2ccccc2COc2ccc(OCc3ccc4ccc(Cl)cc4n3)cc21 (stereo not shown) [Example 2]
a: 0.794

---

# Assayed system: Leukotriene D4 (LTD4) receptor (Cavia porcellus, UniProt Q2NNR5)
# Construct: lung cell membrane fractions of guinea pigs were used; from tissue; host or cells: lung membrane fractions of Hartley strain male guinea pigs
# Assay text: Leukotriene D4 receptor binding test ([3H]ICI-198615 displacement, lung cell membrane fractions)
# Stated conditions: guinea pig lung membranes; [3H]ICI-198615 about 0.2 nM; pKi=-log Ki; read-out: pKi value (converted)
Outcome measure: Ki

compound="O=C(O)COC1c2ccccc2COc2ccc(OCc3ccc4cc(Cl)ccc4n3)cc21 (centres unmarked) [Example 26]" observed_value="1.58 nM"
compound="CC(SC1c2ccccc2COc2ccc(OCc3ccc4ccccc4n3)cc21)C(=O)O (centres unmarked) [Example 23]" observed_value="5.01 nM"
compound="Cc1ccccc1S(=O)(=O)NC(=O)CCSC1c2ccccc2COc2ccc(OCc3ccc4ccc(Cl)cc4n3)cc21 (centres unmarked) [Example 40]" observed_value="2.51 nM"
compound="O=C(CSC1c2ccccc2COc2ccc(OCc3ccc4ccccc4n3)cc21)NS(=O)(=O)c1ccccc1 (centres unmarked) [Example 41]" observed_value="1.26 nM"
compound="c1ccc(Cc2nnn[nH]2)c(COc2ccc(OCc3ccc4ccccc4n3)cc2)c1 [Compound A, reference compound]" observed_value="6.31 nM"

q: // returns reported Ki for input Clc1ccc2ccc(COc3ccc4c(c3)C(OCCc3nn[nH]n3)c3ccccc3CO4)nc2c1 (centres unmarked) [Example 31]
a: 2 nM

q: Continue with O=C(CSC1c2ccccc2COc2ccc(OCc3ccc4ccc(Cl)cc4n3)cc21)NS(=O)(=O)c1ccccc1 (centres unmarked) [Example 39]
a: 2 nM

q: Continue with O=C(O)COC1c2ccccc2COc2ccc(OCc3ccc4ccc(Cl)cc4n3)cc21 (centres unmarked) [Example 27]
a: 5.01 nM
